# credit: PubChem BioAssay AID1963860

system: CN0375-F725-PDC KRAS spheroid viability; experiment: Anticancer human tumor CN0375-F725-PDC patient-derived colon carcinoma cell line growth inhibition [KRAS2]; settings: curve of first compound; second compound 1 µM; spheroids with HUVEC and MSC
pIC50: −log10 of the molar value.
Metric: pIC50

Compound	Result comparator	Assay result
COC(=O)c1ccc2c(C(=Nc3ccc(N(C)C(=O)CN4CCN(C)CC4)cc3)c3ccccc3)c(O)[nH]c2c1 + C=CC(=O)N1CCN(c2nc(=O)n(-c3c(C)ccnc3C(C)C)c3nc(-c4c(O)cccc4F)c(F)cc23)C(C)C1	=	5.75
Cn1ncnc1[C@H]1c2n[nH]c(=O)c3cc(F)cc(c23)N[C@@H]1c1ccc(F)cc1 + C=CC(=O)N1CCN(c2nc(OCC3CCCN3C)nc3c2CCN(c2cccc4cccc(C)c24)C3)CC1CC#N	<	7.00
CC(C)n1nc(-c2ccc3oc(N)nc3c2)c2c(N)ncnc21 + CC1OCC2(CCN(c3cnc(Sc4ccnc(N)c4Cl)c(N)n3)CC2)C1N	=	7.48
CCN1CCN(Cc2ccc(Nc3ncc(F)c(-c4cc(F)c5nc(C)n(C(C)C)c5c4)n3)nc2)CC1 + C=CC(=O)N1CCN(c2nc(OCC3CCCN3C)nc3c2CCN(c2cccc4cccc(C)c24)C3)CC1CC#N	<	6.00
CC(C)NCC(C(=O)N1CCN(c2ncnc3c2C(C)CC3O)CC1)c1ccc(Cl)cc1 (stereo unspecified) + C=CC(=O)N1CCN(c2nc(OCC3CCCN3C)nc3c2CCN(c2cccc4cccc(C)c24)C3)CC1CC#N	<	5.00
CC(C)n1nc(-c2ccc3oc(N)nc3c2)c2c(N)ncnc21 + CNCc1ccccc1-c1csc(C(C)Nc2nc(C)nc3cc(OC)c(OC)cc23)c1	=	8.95
CCNC(=O)CC1N=C(c2ccc(Cl)cc2)c2cc(OC)ccc2-n2c(C)nnc21 (stereo unspecified) + CC1OCC2(CCN(c3cnc(Sc4ccnc(N)c4Cl)c(N)n3)CC2)C1N	=	5.43
O=C(c1cc(Cc2n[nH]c(=O)c3ccccc23)ccc1F)N1CCN(C(=O)C2CC2)CC1 + C=CC(=O)N1CCN(c2nc(OCC3CCCN3C)nc3c2CCN(c2cccc4cccc(C)c24)C3)CC1CC#N	<	5.00
CC(C)NCC(C(=O)N1CCN(c2ncnc3c2C(C)CC3O)CC1)c1ccc(Cl)cc1 (stereo unspecified) + CNCc1ccccc1-c1csc(C(C)Nc2nc(C)nc3cc(OC)c(OC)cc23)c1	=	6.43
CC(C)n1nc(-c2ccc3oc(N)nc3c2)c2c(N)ncnc21 + COc1cc2nc(C)nc(NC(C)c3cc(N)cc(C(F)(F)F)c3)c2cc1OC1CCOC1	=	7.44
CC1(C)CCC(CN2CCN(c3ccc(C(=O)NS(=O)(=O)c4ccc(NCC5CCOCC5)c([N+](=O)[O-])c4)c(Oc4cnc5[nH]ccc5c4)c3)CC2)=C(c2ccc(Cl)cc2)C1 + COc1cc2nc(C)nc(NC(C)c3cc(N)cc(C(F)(F)F)c3)c2cc1OC1CCOC1	=	5.55

====

# key: entry, value: viability, T/C
system: CN0375-F725-PDC KRAS spheroid viability; experiment: Anticancer human tumor CN0375-F725-PDC cell line growth inhibition [KRAS2]; conditions: second compound 0.316 µM; first compound 0.000316 µM; stronger effect = lower value; spheroids with HUVEC and MSC;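 note: spheroids exposed to agents for 7 days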

Molecule	viability, T/C (%)
CN(C)C/C=C/C(=O)Nc1cc2c(Nc3ccc(F)c(Cl)c3)ncnc2cc1O[C@H]1CCOC1 + CC1OCC2(CCN(c3cnc(Sc4ccnc(N)c4Cl)c(N)n3)CC2)C1N	93.6
CC(C)n1nc(-c2ccc3oc(N)nc3c2)c2c(N)ncnc21 + CNCc1ccccc1-c1csc(C(C)Nc2nc(C)nc3cc(OC)c(OC)cc23)c1	91.1
CC(C)n1nc(-c2ccc3oc(N)nc3c2)c2c(N)ncnc21 + COc1cc2nc(C)nc(NC(C)c3cc(N)cc(C(F)(F)F)c3)c2cc1OC1CCOC1	95.1
CC(C)n1nc(-c2ccc3oc(N)nc3c2)c2c(N)ncnc21 + C=CC(=O)N1CCN(c2nc(OCC3CCCN3C)nc3c2CCN(c2cccc4cccc(C)c24)C3)CC1CC#N	103
Cn1ncnc1[C@H]1c2n[nH]c(=O)c3cc(F)cc(c23)N[C@@H]1c1ccc(F)cc1 + COc1cc2nc(C)nc(NC(C)c3cc(N)cc(C(F)(F)F)c3)c2cc1OC1CCOC1	97.2
Cn1ncnc1[C@H]1c2n[nH]c(=O)c3cc(F)cc(c23)N[C@@H]1c1ccc(F)cc1 + C=CC(=O)N1CCN(c2nc(OCC3CCCN3C)nc3c2CCN(c2cccc4cccc(C)c24)C3)CC1CC#N	95.9

====

# key: entry, value: viability, T/C
system: CN0375-F725-PDC KRAS spheroid viability; test: Anticancer human tumor CN0375-F725-PDC cell line growth inhibition [KRAS2]; conditions: second compound 0.1 µM; first compound 0.01 µM; stronger effect = lower value; spheroids with HUVEC and MSC;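 note: spheroids exposed to agents for 7 days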

Compound	Units text	viability, T/C
CC1COCCN1c1cc(-c2ccnn2C)c2ccnc(-c3ccn[nH]3)c2n1 (stereo not given) + C=CC(=O)N1CCN(c2nc(=O)n(-c3c(C)ccnc3C(C)C)c3nc(-c4c(O)cccc4F)c(F)cc23)C(C)C1	%	107
CN(C)C/C=C/C(=O)Nc1cc2c(Nc3ccc(F)c(Cl)c3)ncnc2cc1O[C@H]1CCOC1 + CNCc1ccccc1-c1csc(C(C)Nc2nc(C)nc3cc(OC)c(OC)cc23)c1	%	86.4
CC(C)n1nc(-c2ccc3oc(N)nc3c2)c2c(N)ncnc21 + C=CC(=O)N1CCN(c2nc(=O)n(-c3c(C)ccnc3C(C)C)c3nc(-c4c(O)cccc4F)c(F)cc23)C(C)C1	%	67.4
CC(=O)Nc1cccc(-n2c(=O)n(C3CC3)c(=O)c3c(Nc4ccc(I)cc4F)n(C)c(=O)c(C)c32)c1 + COc1cc2nc(C)nc(NC(C)c3cc(N)cc(C(F)(F)F)c3)c2cc1OC1CCOC1	%	43.9
CC(=O)Nc1cccc(-n2c(=O)n(C3CC3)c(=O)c3c(Nc4ccc(I)cc4F)n(C)c(=O)c(C)c32)c1 + C=CC(=O)N1CCN(c2nc(OCC3CCCN3C)nc3c2CCN(c2cccc4cccc(C)c24)C3)CC1CC#N	%	44.5
CC(C)n1nc(-c2ccc3oc(N)nc3c2)c2c(N)ncnc21 + C=CC(=O)N1CCN(c2nc(OCC3CCCN3C)nc3c2CCN(c2cccc4cccc(C)c24)C3)CC1CC#N	%	63.8
CC(C)n1nc(-c2ccc3oc(N)nc3c2)c2c(N)ncnc21 + CC1OCC2(CCN(c3cnc(Sc4ccnc(N)c4Cl)c(N)n3)CC2)C1N	%	68.6
CC(=O)OC12COC1CC(O)C1(C)C(=O)C(O)C3=C(C)C(OC(=O)C(O)C(NC(=O)OC(C)(C)C)c4ccccc4)CC(O)(C(OC(=O)c4ccccc4)C21)C3(C)C (stereo not given) + C=CC(=O)N1CCN(c2nc(=O)n(-c3c(C)ccnc3C(C)C)c3nc(-c4c(O)cccc4F)c(F)cc23)C(C)C1	%	100
CN(C)C/C=C/C(=O)Nc1cc2c(Nc3ccc(F)c(Cl)c3)ncnc2cc1O[C@H]1CCOC1 + CC1OCC2(CCN(c3cnc(Sc4ccnc(N)c4Cl)c(N)n3)CC2)C1N	%	85.9
CC(=O)OC12COC1CC(O)C1(C)C(=O)C(O)C3=C(C)C(OC(=O)C(O)C(NC(=O)OC(C)(C)C)c4ccccc4)CC(O)(C(OC(=O)c4ccccc4)C21)C3(C)C (stereo not given) + C=CC(=O)N1CCN(c2nc(OCC3CCCN3C)nc3c2CCN(c2cccc4cccc(C)c24)C3)CC1CC#N	%	104
Cn1ncnc1[C@H]1c2n[nH]c(=O)c3cc(F)cc(c23)N[C@@H]1c1ccc(F)cc1 + C=CC(=O)N1CCN(c2nc(=O)n(-c3c(C)ccnc3C(C)C)c3nc(-c4c(O)cccc4F)c(F)cc23)C(C)C1	%	103
CC(C)n1nc(-c2ccc3oc(N)nc3c2)c2c(N)ncnc21 + CNCc1ccccc1-c1csc(C(C)Nc2nc(C)nc3cc(OC)c(OC)cc23)c1	%	67
CC(=O)Nc1cccc(-n2c(=O)n(C3CC3)c(=O)c3c(Nc4ccc(I)cc4F)n(C)c(=O)c(C)c32)c1 + C=CC(=O)N1CCN(c2nc(=O)n(-c3c(C)ccnc3C(C)C)c3nc(-c4c(O)cccc4F)c(F)cc23)C(C)C1	%	45.1
Cn1ncnc1[C@H]1c2n[nH]c(=O)c3cc(F)cc(c23)N[C@@H]1c1ccc(F)cc1 + COc1cc2nc(C)nc(NC(C)c3cc(N)cc(C(F)(F)F)c3)c2cc1OC1CCOC1	%	97.9
CC(=O)OC12COC1CC(O)C1(C)C(=O)C(O)C3=C(C)C(OC(=O)C(O)C(NC(=O)OC(C)(C)C)c4ccccc4)CC(O)(C(OC(=O)c4ccccc4)C21)C3(C)C (stereo not given) + COc1cc2nc(C)nc(NC(C)c3cc(N)cc(C(F)(F)F)c3)c2cc1OC1CCOC1	%	99.6
CC(=O)OC12COC1CC(O)C1(C)C(=O)C(O)C3=C(C)C(OC(=O)C(O)C(NC(=O)OC(C)(C)C)c4ccccc4)CC(O)(C(OC(=O)c4ccccc4)C21)C3(C)C (stereo not given) + CNCc1ccccc1-c1csc(C(C)Nc2nc(C)nc3cc(OC)c(OC)cc23)c1	%	96.2
CC(C)n1nc(-c2ccc3oc(N)nc3c2)c2c(N)ncnc21 + COc1cc2nc(C)nc(NC(C)c3cc(N)cc(C(F)(F)F)c3)c2cc1OC1CCOC1	%	70.4
CCN1CCN(Cc2ccc(Nc3ncc(F)c(-c4cc(F)c5nc(C)n(C(C)C)c5c4)n3)nc2)CC1 + C=CC(=O)N1CCN(c2nc(OCC3CCCN3C)nc3c2CCN(c2cccc4cccc(C)c24)C3)CC1CC#N	%	96.8
CN(C)C/C=C/C(=O)Nc1cc2c(Nc3ccc(F)c(Cl)c3)ncnc2cc1O[C@H]1CCOC1 + C=CC(=O)N1CCN(c2nc(=O)n(-c3c(C)ccnc3C(C)C)c3nc(-c4c(O)cccc4F)c(F)cc23)C(C)C1	%	83.5
CC1COCCN1c1cc(-c2ccnn2C)c2ccnc(-c3ccn[nH]3)c2n1 (stereo not given) + CC1OCC2(CCN(c3cnc(Sc4ccnc(N)c4Cl)c(N)n3)CC2)C1N	%	107
